# Test system: healthy subjects
# MEASUREMENT_NOTES: Phase 1 clinical trial, single and multiple HPBCD inhalation
# Format: in vivo, human
# CONDITION_PARAMETERS: single dose, HPBCD 15 mM; mean ± SD
# Method: Clinical trial protocols have been approved by an independent ethical committee (CHU Liege—University of Liege) in accordance with GCPs, Declaration of Helsinki and European regulations (EudraCT). […] General symptoms, asthma scores (ACQ), dyspnea, chest Rx, clinical biology, ECG, vital signs, spirometry, NO, sputum (induced by NaCl 4.5%) were analyzed after treatment periods. […] PD20 (provocative dose that causes a 20% fall in FEV1 from the saline alone value) to inhaled allergen was determined. […]
ATTRIBUTE_MEASURED: FEV1 5 h after inhalation (L)
// return numeric value only (unit: L, not printed)

I'd like to know its FEV1 5 h after inhalation. The compound in question is CC(O)COC[C@H]1O[C@@H]2O[C@H]3[C@H](O)[C@@H](O)[C@@H](O[C@H]4[C@H](O)[C@@H](O)[C@@H](O[C@H]5[C@H](O)[C@@H](O)[C@@H](O[C@H]6[C@H](O)[C@@H](O)[C@@H](O[C@H]7[C@H](O)[C@@H](O)[C@@H](O[C@H]8[C@H](O)[C@@H](O)[C@@H](O[C@H]1[C@H](O)[C@H]2O)O[C@@H]8COCC(C)O)O[C@@H]7COCC(C)O)O[C@@H]6COCC(C)O)O[C@@H]5COCC(C)O)O[C@@H]4COCC(C)O)O[C@@H]3COCC(C)O (stereo partly drawn) [HPBCD, 2-hydroxypropyl-beta-cyclodextrin]
4.08

---

# Test system: healthy subjects
# MEASUREMENT_NOTES: Phase 1 clinical trial, single and multiple HPBCD inhalation
# Assay type: in vivo, human
# CONDITION_PARAMETERS: multiple dose HPBCD 15 mM, after 5 days inhalation; mean ± SD
ATTRIBUTE_MEASURED: FEV1 3 h after inhalation (L)
Use L as the unit, but write only the number.

What reported FEV1 3 h after inhalation corresponds to CC(O)COC[C@H]1O[C@@H]2O[C@H]3[C@H](O)[C@@H](O)[C@@H](O[C@H]4[C@H](O)[C@@H](O)[C@@H](O[C@H]5[C@H](O)[C@@H](O)[C@@H](O[C@H]6[C@H](O)[C@@H](O)[C@@H](O[C@H]7[C@H](O)[C@@H](O)[C@@H](O[C@H]8[C@H](O)[C@@H](O)[C@@H](O[C@H]1[C@H](O)[C@H]2O)O[C@@H]8COCC(C)O)O[C@@H]7COCC(C)O)O[C@@H]6COCC(C)O)O[C@@H]5COCC(C)O)O[C@@H]4COCC(C)O)O[C@@H]3COCC(C)O (stereo partly drawn) [HPBCD, 2-hydroxypropyl-beta-cyclodextrin] on healthy subjects?
4.11

---

# Tested on: healthy subjects
# MEASUREMENT_NOTES: Phase 1 clinical trial, single and multiple HPBCD inhalation
# Assay type: in vivo, human
# CONDITION_PARAMETERS: multiple dose HPBCD 15 mM, after 5 days inhalation; mean ± SD
ATTRIBUTE_MEASURED: FEV1 5 h after inhalation
Enter the number, and then the unit.

Recorded FEV1 5 h after inhalation of CC(O)COC[C@H]1O[C@@H]2O[C@H]3[C@H](O)[C@@H](O)[C@@H](O[C@H]4[C@H](O)[C@@H](O)[C@@H](O[C@H]5[C@H](O)[C@@H](O)[C@@H](O[C@H]6[C@H](O)[C@@H](O)[C@@H](O[C@H]7[C@H](O)[C@@H](O)[C@@H](O[C@H]8[C@H](O)[C@@H](O)[C@@H](O[C@H]1[C@H](O)[C@H]2O)O[C@@H]8COCC(C)O)O[C@@H]7COCC(C)O)O[C@@H]6COCC(C)O)O[C@@H]5COCC(C)O)O[C@@H]4COCC(C)O)O[C@@H]3COCC(C)O (stereo partly drawn) [HPBCD, 2-hydroxypropyl-beta-cyclodextrin] , please.
4.1 L

---

# System: healthy subjects
# MEASUREMENT_NOTES: Phase 1 clinical trial, single and multiple HPBCD inhalation
# Type: in vivo, human
# CONDITION_PARAMETERS: single dose, HPBCD 15 mM; mean ± SD
ATTRIBUTE_MEASURED: FEV1 3 h after inhalation (L)
Field: numeric (L). Do not append units.

I would be grateful if you could share the reported FEV1 3 h after inhalation for CC(O)COC[C@H]1O[C@@H]2O[C@H]3[C@H](O)[C@@H](O)[C@@H](O[C@H]4[C@H](O)[C@@H](O)[C@@H](O[C@H]5[C@H](O)[C@@H](O)[C@@H](O[C@H]6[C@H](O)[C@@H](O)[C@@H](O[C@H]7[C@H](O)[C@@H](O)[C@@H](O[C@H]8[C@H](O)[C@@H](O)[C@@H](O[C@H]1[C@H](O)[C@H]2O)O[C@@H]8COCC(C)O)O[C@@H]7COCC(C)O)O[C@@H]6COCC(C)O)O[C@@H]5COCC(C)O)O[C@@H]4COCC(C)O)O[C@@H]3COCC(C)O (stereo partly drawn) [HPBCD, 2-hydroxypropyl-beta-cyclodextrin] .
4.07

---

# System: healthy subjects
# MEASUREMENT_NOTES: Phase 1 clinical trial, single and multiple HPBCD inhalation
# Format: in vivo, human
# CONDITION_PARAMETERS: single dose, HPBCD 15 mM; mean ± SD
# Experimental: Clinical trial protocols have been approved by an independent ethical committee (CHU Liege—University of Liege) in accordance with GCPs, Declaration of Helsinki and European regulations (EudraCT). […] General symptoms, asthma scores (ACQ), dyspnea, chest Rx, clinical biology, ECG, vital signs, spirometry, NO, sputum (induced by NaCl 4.5%) were analyzed after treatment periods. […] PD20 (provocative dose that causes a 20% fall in FEV1 from the saline alone value) to inhaled allergen was determined. […]
ATTRIBUTE_MEASURED: FEV1 15 min after inhalation (L)
Entry rule: numbers only, all in L.

Which value of FEV1 15 min after inhalation has been reported for CC(O)COC[C@H]1O[C@@H]2O[C@H]3[C@H](O)[C@@H](O)[C@@H](O[C@H]4[C@H](O)[C@@H](O)[C@@H](O[C@H]5[C@H](O)[C@@H](O)[C@@H](O[C@H]6[C@H](O)[C@@H](O)[C@@H](O[C@H]7[C@H](O)[C@@H](O)[C@@H](O[C@H]8[C@H](O)[C@@H](O)[C@@H](O[C@H]1[C@H](O)[C@H]2O)O[C@@H]8COCC(C)O)O[C@@H]7COCC(C)O)O[C@@H]6COCC(C)O)O[C@@H]5COCC(C)O)O[C@@H]4COCC(C)O)O[C@@H]3COCC(C)O (stereo partly drawn) [HPBCD, 2-hydroxypropyl-beta-cyclodextrin] in the records?
4.01

---

# System: healthy subjects
# MEASUREMENT_NOTES: Phase 1 clinical trial, single and multiple HPBCD inhalation
# Type: in vivo, human
# CONDITION_PARAMETERS: single dose, HPBCD 2.5 mM; mean ± SD
ATTRIBUTE_MEASURED: FEV1 3 h after inhalation (L)
Give a bare numeral; the unit L is implied.

Returns the measured FEV1 3 h after inhalation for the input compound. Input: CC(O)COC[C@H]1O[C@@H]2O[C@H]3[C@H](O)[C@@H](O)[C@@H](O[C@H]4[C@H](O)[C@@H](O)[C@@H](O[C@H]5[C@H](O)[C@@H](O)[C@@H](O[C@H]6[C@H](O)[C@@H](O)[C@@H](O[C@H]7[C@H](O)[C@@H](O)[C@@H](O[C@H]8[C@H](O)[C@@H](O)[C@@H](O[C@H]1[C@H](O)[C@H]2O)O[C@@H]8COCC(C)O)O[C@@H]7COCC(C)O)O[C@@H]6COCC(C)O)O[C@@H]5COCC(C)O)O[C@@H]4COCC(C)O)O[C@@H]3COCC(C)O (stereo partly drawn) [HPBCD, 2-hydroxypropyl-beta-cyclodextrin]
4.1

---

# Tested on: healthy subjects
# MEASUREMENT_NOTES: Phase 1 clinical trial, single and multiple HPBCD inhalation
# Format: in vivo, human
# CONDITION_PARAMETERS: multiple dose HPBCD 15 mM, after 5 days inhalation; mean ± SD
ATTRIBUTE_MEASURED: FEV1 1 h after inhalation (L)
Write it as a number; the unit L goes unstated.

So what FEV1 1 h after inhalation did CC(O)COC[C@H]1O[C@@H]2O[C@H]3[C@H](O)[C@@H](O)[C@@H](O[C@H]4[C@H](O)[C@@H](O)[C@@H](O[C@H]5[C@H](O)[C@@H](O)[C@@H](O[C@H]6[C@H](O)[C@@H](O)[C@@H](O[C@H]7[C@H](O)[C@@H](O)[C@@H](O[C@H]8[C@H](O)[C@@H](O)[C@@H](O[C@H]1[C@H](O)[C@H]2O)O[C@@H]8COCC(C)O)O[C@@H]7COCC(C)O)O[C@@H]6COCC(C)O)O[C@@H]5COCC(C)O)O[C@@H]4COCC(C)O)O[C@@H]3COCC(C)O (stereo partly drawn) [HPBCD, 2-hydroxypropyl-beta-cyclodextrin] get with healthy subjects?
4.07
